Below, each entry is listed with its recorded pIC50.
# Assay System: EZH2 within the PRC2 complex (Homo sapiens (Human))
# Sequence (Q15910 whole entry): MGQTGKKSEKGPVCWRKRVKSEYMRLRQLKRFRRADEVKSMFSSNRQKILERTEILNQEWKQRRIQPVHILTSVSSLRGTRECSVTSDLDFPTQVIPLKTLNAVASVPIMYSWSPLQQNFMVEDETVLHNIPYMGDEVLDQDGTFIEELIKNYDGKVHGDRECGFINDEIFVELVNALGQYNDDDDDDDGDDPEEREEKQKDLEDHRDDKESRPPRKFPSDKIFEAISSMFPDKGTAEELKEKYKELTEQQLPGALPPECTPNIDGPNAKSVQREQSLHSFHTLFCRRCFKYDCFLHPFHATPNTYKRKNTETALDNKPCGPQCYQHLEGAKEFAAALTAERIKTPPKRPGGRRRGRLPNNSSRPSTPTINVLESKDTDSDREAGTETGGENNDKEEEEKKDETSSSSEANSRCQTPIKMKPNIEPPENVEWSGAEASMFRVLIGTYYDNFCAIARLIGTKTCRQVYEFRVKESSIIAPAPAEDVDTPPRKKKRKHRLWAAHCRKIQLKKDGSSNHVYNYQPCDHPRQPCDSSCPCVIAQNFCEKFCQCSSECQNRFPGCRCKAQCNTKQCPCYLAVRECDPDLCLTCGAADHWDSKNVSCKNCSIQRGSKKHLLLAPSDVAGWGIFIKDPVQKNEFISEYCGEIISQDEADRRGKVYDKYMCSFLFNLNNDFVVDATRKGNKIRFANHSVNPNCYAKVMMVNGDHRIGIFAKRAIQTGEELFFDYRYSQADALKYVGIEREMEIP
# Sequence (O75530 whole entry partner): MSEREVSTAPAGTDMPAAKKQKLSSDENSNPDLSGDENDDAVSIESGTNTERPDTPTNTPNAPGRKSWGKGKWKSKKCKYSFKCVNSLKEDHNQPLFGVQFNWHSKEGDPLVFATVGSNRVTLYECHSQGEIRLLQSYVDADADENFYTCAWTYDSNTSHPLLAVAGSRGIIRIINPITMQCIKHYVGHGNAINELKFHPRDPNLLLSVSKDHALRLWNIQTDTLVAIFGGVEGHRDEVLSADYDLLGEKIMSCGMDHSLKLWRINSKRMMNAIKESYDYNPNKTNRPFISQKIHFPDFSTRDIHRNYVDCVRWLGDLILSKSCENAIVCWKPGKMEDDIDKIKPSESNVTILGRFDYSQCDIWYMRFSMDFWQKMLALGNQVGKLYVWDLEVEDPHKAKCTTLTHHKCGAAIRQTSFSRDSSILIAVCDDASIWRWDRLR
# Sequence (Q15022 whole entry partner): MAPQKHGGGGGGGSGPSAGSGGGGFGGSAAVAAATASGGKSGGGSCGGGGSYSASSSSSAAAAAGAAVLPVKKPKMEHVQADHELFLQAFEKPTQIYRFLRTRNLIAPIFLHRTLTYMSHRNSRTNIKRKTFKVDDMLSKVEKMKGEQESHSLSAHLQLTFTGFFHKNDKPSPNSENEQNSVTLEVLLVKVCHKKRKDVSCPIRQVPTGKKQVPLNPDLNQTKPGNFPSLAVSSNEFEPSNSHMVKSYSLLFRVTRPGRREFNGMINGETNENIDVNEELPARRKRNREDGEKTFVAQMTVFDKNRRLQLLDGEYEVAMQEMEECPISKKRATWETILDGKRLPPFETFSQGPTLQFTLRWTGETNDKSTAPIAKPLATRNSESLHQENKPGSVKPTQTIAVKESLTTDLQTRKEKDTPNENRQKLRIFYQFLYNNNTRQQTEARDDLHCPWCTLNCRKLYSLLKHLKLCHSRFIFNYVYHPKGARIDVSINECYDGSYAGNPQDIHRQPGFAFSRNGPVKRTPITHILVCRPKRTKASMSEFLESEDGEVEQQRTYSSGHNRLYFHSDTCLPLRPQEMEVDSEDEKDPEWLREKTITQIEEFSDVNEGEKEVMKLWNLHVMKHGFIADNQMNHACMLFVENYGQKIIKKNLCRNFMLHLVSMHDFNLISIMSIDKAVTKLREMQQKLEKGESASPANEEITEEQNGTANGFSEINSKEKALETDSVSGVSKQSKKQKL
# Sequence (Q09028 whole entry partner): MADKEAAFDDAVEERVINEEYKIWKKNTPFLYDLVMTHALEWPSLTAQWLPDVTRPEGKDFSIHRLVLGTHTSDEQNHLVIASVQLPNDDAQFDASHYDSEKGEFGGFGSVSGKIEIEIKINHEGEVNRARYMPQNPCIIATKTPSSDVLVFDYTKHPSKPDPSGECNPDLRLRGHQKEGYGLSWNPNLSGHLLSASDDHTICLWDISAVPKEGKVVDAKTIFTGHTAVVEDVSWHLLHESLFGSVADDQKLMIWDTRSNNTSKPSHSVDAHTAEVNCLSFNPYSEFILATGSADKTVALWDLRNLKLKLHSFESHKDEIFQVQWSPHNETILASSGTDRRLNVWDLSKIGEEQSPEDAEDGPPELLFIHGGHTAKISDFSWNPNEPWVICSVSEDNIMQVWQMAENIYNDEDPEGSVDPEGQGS
# Sequence (Q6ZN18 whole entry partner): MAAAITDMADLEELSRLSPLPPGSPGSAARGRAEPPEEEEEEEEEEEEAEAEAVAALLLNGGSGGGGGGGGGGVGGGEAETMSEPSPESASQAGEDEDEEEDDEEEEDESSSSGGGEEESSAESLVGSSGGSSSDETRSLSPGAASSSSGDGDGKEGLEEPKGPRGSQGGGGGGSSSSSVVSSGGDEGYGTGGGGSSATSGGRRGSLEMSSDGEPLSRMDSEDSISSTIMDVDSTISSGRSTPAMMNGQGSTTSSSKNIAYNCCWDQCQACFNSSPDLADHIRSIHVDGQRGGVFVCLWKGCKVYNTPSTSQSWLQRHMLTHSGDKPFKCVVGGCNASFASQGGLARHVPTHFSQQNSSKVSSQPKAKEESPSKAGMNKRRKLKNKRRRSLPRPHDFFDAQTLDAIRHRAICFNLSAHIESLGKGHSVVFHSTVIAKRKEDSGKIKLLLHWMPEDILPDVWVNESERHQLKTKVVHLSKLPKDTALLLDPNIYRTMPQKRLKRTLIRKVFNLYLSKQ
# Assay Protocol: EZH2 methyltransferase SPA, mononucleosome substrate (Assay Protocol 1)
# Type: biochemical
# Measurement Setup: HeLa mononucleosome substrate, 3H-SAM, ≦10 nM approaches limit of detection
# Protocol: Compounds contained herein were evaluated for their ability to inhibit the methyltransferase activity of EZH2 within the PRC2 complex. […] Enzyme activity was measured in a scintillation proximity assay (SPA) where a tritiated methyl group is transferred from 3H-SAM to a lysine residue on Histone H3 of a mononucleosome, purified from HeLa cells. Mononucleosomes were captured on SPA beads and the resulting signal is read on a ViewLux plate reader. […] • 1. […] Read plates • 1. […]
Counter-ions that a name gives are not always drawn.
Recall that pIC50 is obtained by taking minus log10 of the concentration measured in molar.

Previously resolved entries follow.
Molecule	pIC50
CCN(c1ccc(C(=O)NCc2c(C)cc(C)[nH]c2=O)s1)C1CCOCC1 [Example 30]	4.40
CCN(c1c(C)c(C(=O)NCc2c(C)cc(C)[nH]c2=O)nn1C)C1CCOCC1 [Example 14]	6.20
CCN(c1scc(C(=O)NCc2c(C)cc(C)[nH]c2=O)c1C)C1CCOCC1 [Example 6]	7.80
Cc1cc(C)c(CNC(=O)c2scc(OC(C)C)c2C)c(=O)[nH]1 [Example 1]	5.50
CCN(c1csc(C(=O)NCc2c(C)cc(C)[nH]c2=O)c1C)[C@H]1CC[C@@H](N(C)C)CC1 [Example 5]	7.49

Task: Which pIC50 is reported for this molecule? CCN(c1csc(C(=O)NCc2c(C)cc(C)[nH]c2=O)c1C)C1CCOCC1 [Example 2]
Result: 7.20

Task: Recorded pIC50 of CCN(c1scc(C(=O)NCc2c(C)cc(C(F)(F)F)[nH]c2=O)c1C)[C@H]1CC[C@H](N(C)C)CC1 [Example 17] , please.
Result: 6.50

Task: Entry Cc1cc(C)c(CNC(=O)c2csc(C(C)N3CCC(N(C)C)CC3)c2C)c(=O)[nH]1 (stereo not shown) [Example 27, hydrochloride] has what pIC50?
Result: 7.51

Task: Entry under review: CCC(c1scc(C(=O)NCc2c(C)cc(C)[nH]c2=O)c1C)N1CCC(N(C)C)CC1 (stereo not shown) [Example 28] . Reported pIC50?
Result: 7.72

Task: Please look up its pIC50: CCN(c1csc(C(=O)NCc2c(C)cc(C)[nH]c2=O)c1C)[C@H]1CC[C@H](N(C)C)CC1 [Example 4]
Result: 7.80

Task: # lookup: pIC50 of Cc1cc(C)c(CNC(=O)c2csc(N3CCCC3C)c2C)c(=O)[nH]1 (stereo not shown) [Example 25]
Result: 7.00
